Assignment: determine reported MBC for the given molecules.
System: Pseudomonas aeruginosa
testDetails: Antibacterial activity against Pseudomonas aeruginosa ATCC 27853 after 24 hrs by Broth micro dilution method
Type: functional
cond: ATCC 27853, 24 h
Numbers only, in µg/mL.

molecule	readoutUnits	MBC
CCCC(=O)c1c(O)c(CC2=C(O)C(C)(C/C=C(\C)CCC=C(C)C)C(O)=C(C(C)=O)C2=O)c(O)c2c1OC(C)(CCC=C(C)C)C=C2 (stereo unspecified)	µg/mL	50
CCCC(=O)c1c(O)c(CC2=C(O)C(C)(C/C=C(\C)CCC=C(C)C)C(O)=C(C(C)=O)C2=O)c(O)c2c1OC(C)(C)C=C2 (stereo unspecified)	µg/mL	50
CCCC(=O)c1c(O)c2c(c(CC3=C(O)C(C)(C/C=C(\C)CCC=C(C)C)C(O)=C(C(C)=O)C3=O)c1O)OC(C)(C)C=C2 (stereo unspecified)	µg/mL	50
CCCC(=O)c1c(O)c(CC=C(C)C)c(O)c(CC2=C(O)C(C)(C/C=C(\C)CCC=C(C)C)C(O)=C(C(C)=O)C2=O)c1O (stereo unspecified)	µg/mL	100
CCCC(=O)c1c(O)c(C/C=C(\C)CCC=C(C)C)c(O)c(CC2=C(O)C(C)(C/C=C(\C)CCC=C(C)C)C(O)=C(C(C)=O)C2=O)c1O (stereo unspecified)	µg/mL	200

Here is the next item to consider.
INPUT: Supply measured MBC of CCCCCC(=O)c1c(O)c(CC2=C(O)C(C)(C/C=C(\C)CCC=C(C)C)C(O)=C(C(C)=O)C2=O)c(O)c2c1OC(C)(C)C=C2 (stereo unspecified) in your reply.
OUTPUT: 50

* * *

System: Pseudomonas aeruginosa
testDetails: Antibacterial activity against Pseudomonas aeruginosa ATCC 27853 assessed as growth inhibition at 10 ug/ml after 24 hrs by Broth micro dilution method relative to control
Assay type: functional
cond: ATCC 27853, 24 h, read-out: GI
measurementType: inhibition of growth at 10 µg/mL (%)
Give bare numbers, in %.

Some compounds with recorded inhibition of growth at 10 µg/mL:
compound	inhibition of growth at 10 µg/mL [%]
CCCC(=O)c1c(O)c(CC=C(C)C)c(O)c(CC2=C(O)C(C)(C/C=C(\C)CCC=C(C)C)C(O)=C(C(C)=O)C2=O)c1O (stereo unspecified) [YUNGENSIN D]	86
CCCC(=O)c1c(O)c(CC2=C(O)C(C)(C/C=C(\C)CCC=C(C)C)C(O)=C(C(C)=O)C2=O)c(O)c2c1OC(C)(C)C=C2 (stereo unspecified) [YUNGENSIN A]	99
CCCCCC(=O)c1c(O)c(CC2=C(O)C(C)(C/C=C(\C)CCC=C(C)C)C(O)=C(C(C)=O)C2=O)c(O)c2c1OC(C)(C)C=C2 (stereo unspecified) [YUNGENSIN B]	99

For each of the items listed, what is its inhibition of growth at 10 µg/mL?
1. CCCC(=O)c1c(O)c(C/C=C(\C)CCC=C(C)C)c(O)c(CC2=C(O)C(C)(C/C=C(\C)CCC=C(C)C)C(O)=C(C(C)=O)C2=O)c1O (stereo unspecified) [YUNGENSIN E]
2. CCCC(=O)c1c(O)c2c(c(CC3=C(O)C(C)(C/C=C(\C)CCC=C(C)C)C(O)=C(C(C)=O)C3=O)c1O)OC(C)(C)C=C2 (stereo unspecified) [YUNGENSIN F]
3. CCCC(=O)c1c(O)c(CC2=C(O)C(C)(C/C=C(\C)CCC=C(C)C)C(O)=C(C(C)=O)C2=O)c(O)c2c1OC(C)(CCC=C(C)C)C=C2 (stereo unspecified) [YUNGENSIN C]

OUTPUT:
[87, 86, 87]
